These entries and their values trace back to the supplement of paper PMC13380429.

System: Vero E6 infected with SARS-CoV-2
Test: morphology score (similarity to uninfected cells); higher = more like uninfected cells
Conditions: 24 h
Mark Not fulfilled for morphology score values under 0.2, and Fulfilled for everything at or above.

{"compound": "COP(=O)(OC)OC(c1ccc(Cl)cc1)P(=O)(OC)OC (stereo not drawn) [mifobate] (10 µM)", "className": "Not fulfilled"}
{"compound": "CNCCCN1c2ccccc2CCc2ccccc21 [desipramine] (10 µM)", "className": "Fulfilled"}
{"compound": "Cc1ccc(NC(=O)c2cccc(C(C)(C)C#N)c2)cc1Nc1ccc2ncn(C)c(=O)c2c1 (0.833333 µM)", "className": "Not fulfilled"}
{"compound": "CCCCCCCCCCCCCCCC(=O)OC(C)C [isopropyl-palmitate] (10 µM)", "className": "Fulfilled"}
{"compound": "CC(=O)N1CCN(C)CC1 [1-acetyl-4-methylpiperazine] (10 µM)", "className": "Not fulfilled"}
{"compound": "CNC(=O)c1ccccc1Nc1cc(Nc2ccc(N3CCOCC3)cc2OC)ncc1C(F)(F)F (10 µM)", "className": "Not fulfilled"}
{"compound": "CC1=NN(c2ccccc2)C(=O)C1 [edaravone] (10 µM)", "className": "Not fulfilled"}
{"compound": "Cn1cnc(N)c2ncnc1-2 [3-methyladenine] (10 µM)", "className": "Fulfilled"}
{"compound": "CCCCN(CC)c1nc(C)nc2c1c(C)c(C)n2-c1c(C)cc(C)cc1C [antalarmin] (10 µM)", "className": "Not fulfilled"}
{"compound": "Nc1ccn([C@@H]2O[C@H](CO)[C@@H](O)[C@@H]2O)c(=O)n1 [cytarabine] (0.833333 µM)", "className": "Not fulfilled"}
{"compound": "Cc1ccc(-n2sc(=O)n(Cc3ccc(F)cc3)c2=O)cc1 (10 µM)", "className": "Fulfilled"}
{"compound": "c1nc(CC2CCNCC2)c[nH]1 [immepip] (10 µM)", "className": "Not fulfilled"}
{"compound": "N#Cc1cc(CN2CCC(Nc3ncnc4sc(Cl)cc34)CC2)ccc1F (10 µM)", "className": "Not fulfilled"}
{"compound": "NC(=O)c1cn(Cc2c(F)cccc2F)nn1 [rufinamide] (10 µM)", "className": "Fulfilled"}
{"compound": "CC(C)=CCC[C@]1(C)C=Cc2c(O)c3c(c(CC=C(C)C)c2O1)O[C@]12C(=C[C@@H]4C[C@H]1C(C)(C)O[C@@]2(C/C=C(/C)C(=O)O)C4=O)C3=O [gambogic-acid] (10 µM)", "className": "Not fulfilled"}
{"compound": "Nc1nc2cc(-c3ccc4ncc(C(=O)N5CCOCC5)n4c3)ccc2o1 (10 µM)", "className": "Fulfilled"}
{"compound": "COc1ccccc1OC(=O)C(C)c1ccc(CC(C)C)cc1 (stereo not drawn) [metoxibutropate] (10 µM)", "className": "Fulfilled"}
{"compound": "O=C1N=C2SCCN2C(=O)C1Cc1ccc(Cl)cc1 (stereo not drawn) [nuclomedone] (10 µM)", "className": "Fulfilled"}
